Taken from patent US3941842A.

Tested on: Musca domestica Snaidm
Test: Topical LD50 to adult female SNAIDM houseflies
Conditions: SNAIDM strain; synergized with piperonyl butoxide; topical
OBSERVABLE: Topical LD50, Musca domestica Snaidm, with pb (μg per g)
Give the value in μg per g but do not write μg per g after it.

stdin: Give its Topical LD50, Musca domestica Snaidm, with pb value. Item: CCOc1ccc(C(Nc2ccccc2OCC)C(Cl)(Cl)Cl)cc1 (stereo not drawn)
stdout: 110

stdin: Entry CCOc1ccc(C(Nc2ccc(OC)cc2)C(Cl)(Cl)Cl)cc1 (stereo not drawn) please
stdout: 5.5

stdin: Entry CCOc1ccc(NC(c2ccccc2)C(Cl)(Cl)Cl)cc1 (stereo not drawn) please
stdout: 31.0

----------
Test system: Phormia regina
Assay: whole plant or invertebrate
Conditions: synergized with piperonyl butoxide; topical
Method: The compounds of the present invention were tested for insecticidal activity by standard methods, and compared with the insecticidal activities of DDT and symmetrical analogs of DDT, such methoxychlor. […] Since piperonyl butoxide serves to block the action of MFO, the synergized LD50 values express the intrinsic toxicity of the compounds. With the detoxifying action of MFO enzymes blocked, the intrinsic toxicity of the compounds can thus be measured.
OBSERVABLE: Topical LD50, Phormia regina, with pb (μg per g)
Give the value in μg per g but do not write μg per g after it.

stdin: Give its Topical LD50, Phormia regina, with pb value. Item: CCOc1ccc(NC(c2ccc(OCC)cc2)C(Cl)(Cl)Cl)cc1 (stereo not drawn)
stdout: 9.7

stdin: Entry CCOc1ccc(C(Nc2ccc(OC)cc2)C(Cl)(Cl)Cl)cc1 (stereo not drawn) please
stdout: 12.5

stdin: Entry COc1ccc(C(Nc2ccc(Cl)cc2)C(Cl)(Cl)Cl)cc1 (stereo not drawn) please
stdout: 15.2

stdin: Entry COc1ccc(C(Nc2ccc(C)c(C)c2)C(Cl)(Cl)Cl)cc1 (stereo not drawn) please
stdout: 15.5

stdin: Entry Cc1ccc(NC(c2ccc(Cl)cc2)C(Cl)(Cl)Cl)cc1 (stereo not drawn) please
stdout: 25
